Source: ChEMBL document CHEMBL1154039

# system-tested: Activin receptor type-1C (Homo sapiens) (UniProt Q8NER5)
# test-method-notes: Inhibition of ALK7 expressed in baculovirus/Sf9 cells assessed as inhibition of receptor autophosphorylation at 0.1 uM after 3 hrs
Mark not fulfilled for inhibition values under 20%, and fulfilled for everything at or above.

Example results:
Hello, I need to know if N#Cc1ccc(-c2cn(-c3ccc4c(c3)OCO4)c(-c3ccccc3F)n2)cc1 has measured inhibition not below 20%. Thanks!
fulfilled

Input COc1ccc(-c2cc(-c3ccc(C(N)=O)cc3)nn2-c2ccccc2F)cc1OC
not fulfilled

Input NC(=O)c1ccc(-c2cc(-c3ccc(O)c(O)c3)n(-c3ccccc3O)n2)cc1
fulfilled

Input Cc1cccc(-n2nc(-c3ccc(C(N)=O)cc3)cc2-c2ccc3c(c2)OCO3)n1
not fulfilled

Input NC(=O)c1ccc(-c2cc(-c3ccccc3F)n(-c3ccc4c(c3)OCO4)n2)cc1
fulfilled

Input Cc1cccc(-n2nc(-c3ccc(C#N)cc3)cc2-c2ccc3c(c2)OCO3)n1
fulfilled

---
Hello, I need to know if Cc1cccc(-c2nc(-c3ccc(C#N)cc3)cn2-c2ccc3c(c2)OCO3)n1 has measured inhibition not below 20%. Thanks!
fulfilled

Input Cc1cccc(-c2nc(-c3ccc(C(N)=O)cc3)cn2-c2ccc3c(c2)OCO3)n1
not fulfilled

Input Cc1cccc(-c2nc(-c3ccc(C(N)=O)cc3)cn2-c2ccc(F)cc2)n1
not fulfilled

Input NC(=O)c1ccc(-c2cc(-c3ccc4c(c3)OCO4)n(-c3ccccn3)n2)cc1
fulfilled

* * *

As shown below, each of these compounds has a reported inhibition value.
# system-tested: UniProtKB P36896
# Sequence (P36896 whole entry): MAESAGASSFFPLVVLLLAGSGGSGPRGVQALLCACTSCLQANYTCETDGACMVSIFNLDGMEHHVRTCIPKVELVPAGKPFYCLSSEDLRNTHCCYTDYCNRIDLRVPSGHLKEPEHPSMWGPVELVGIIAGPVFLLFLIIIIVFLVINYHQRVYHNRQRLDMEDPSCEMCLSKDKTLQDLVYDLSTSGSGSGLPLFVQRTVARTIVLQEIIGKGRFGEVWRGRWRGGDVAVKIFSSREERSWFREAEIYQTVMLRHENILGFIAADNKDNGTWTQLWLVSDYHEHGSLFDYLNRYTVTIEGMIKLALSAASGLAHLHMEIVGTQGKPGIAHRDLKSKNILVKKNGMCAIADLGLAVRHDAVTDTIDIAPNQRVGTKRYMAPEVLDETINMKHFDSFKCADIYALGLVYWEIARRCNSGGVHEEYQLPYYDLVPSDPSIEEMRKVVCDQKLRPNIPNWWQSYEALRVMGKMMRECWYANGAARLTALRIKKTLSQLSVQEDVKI
# test-method-notes: Inhibition of ALK4 expressed in baculovirus/Sf9 cells assessed as inhibition of receptor autophosphorylation at 1 uM after 3 hrs
Number only, in %; omit the unit.

// returns reported inhibition for input Cc1cccc(-c2nc(-c3ccc(C(N)=O)cc3)cn2-c2ccc3c(c2)OCO3)n1
29.8

Input Cc1cccc(-n2nc(-c3ccc(C(N)=O)cc3)cc2-c2ccc3c(c2)OCO3)n1
66.8

---
// returns reported inhibition for input N#Cc1ccc(-c2cn(-c3ccc4c(c3)OCO4)c(-c3ccccc3F)n2)cc1
36.6

* * *

# system-tested: Activin receptor type-1C (Homo sapiens)
# Sequence (whole entry): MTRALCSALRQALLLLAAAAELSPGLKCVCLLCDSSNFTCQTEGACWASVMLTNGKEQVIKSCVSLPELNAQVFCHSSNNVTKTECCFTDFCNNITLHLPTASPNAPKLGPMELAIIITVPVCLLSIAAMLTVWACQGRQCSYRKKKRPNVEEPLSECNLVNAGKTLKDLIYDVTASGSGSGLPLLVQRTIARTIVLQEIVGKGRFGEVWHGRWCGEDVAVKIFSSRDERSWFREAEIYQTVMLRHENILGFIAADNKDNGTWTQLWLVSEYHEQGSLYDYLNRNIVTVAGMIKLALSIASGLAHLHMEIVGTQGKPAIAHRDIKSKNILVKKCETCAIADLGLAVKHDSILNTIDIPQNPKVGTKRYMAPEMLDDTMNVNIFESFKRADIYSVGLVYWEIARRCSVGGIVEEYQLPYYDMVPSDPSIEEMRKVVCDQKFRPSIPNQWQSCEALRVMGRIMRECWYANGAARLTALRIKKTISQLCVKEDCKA
# test-method-notes: Inhibition of ALK7 expressed in baculovirus/Sf9 cells assessed as inhibition of receptor autophosphorylation at 1 uM after 3 hrs
measure: inhibition
In your response, put the unit directly after the numeric value.

Give the reported inhibition for Cc1cccc(-n2nc(-c3ccc(C(N)=O)cc3)cc2-c2ccc3c(c2)OCO3)n1 (system: Activin receptor type-1C (Homo sapiens)).
64%

---
Give the reported inhibition for NC(=O)c1ccc(-c2cc(-c3ccc4c(c3)OCO4)n(-c3ccccc3F)n2)cc1 (system: Activin receptor type-1C (Homo sapiens)).
39.1%

Input Cc1cccc(-c2nc(-c3ccc(C(N)=O)cc3)cn2-c2ccc3c(c2)OCO3)n1
41.3%

Input Cc1cccc(-c2nc(-c3ccc(C(N)=O)cc3)cn2-c2ccc(F)cc2)n1
35.1%

Input Cc1cccc(-c2nc(-c3ccc(C(N)=O)cc3)cn2-c2ccc3c(c2)OCCO3)n1
25%

Input NC(=O)c1ccc(-c2cc(-c3ccc4c(c3)OCO4)n(-c3ccccn3)n2)cc1
57.3%
